Entries and their measured IC50 follow.
# test_system: LRRK2 (Homo sapiens, UniProt Q5S007)
# Sequence (Q5S007 970-2527 limits assumed): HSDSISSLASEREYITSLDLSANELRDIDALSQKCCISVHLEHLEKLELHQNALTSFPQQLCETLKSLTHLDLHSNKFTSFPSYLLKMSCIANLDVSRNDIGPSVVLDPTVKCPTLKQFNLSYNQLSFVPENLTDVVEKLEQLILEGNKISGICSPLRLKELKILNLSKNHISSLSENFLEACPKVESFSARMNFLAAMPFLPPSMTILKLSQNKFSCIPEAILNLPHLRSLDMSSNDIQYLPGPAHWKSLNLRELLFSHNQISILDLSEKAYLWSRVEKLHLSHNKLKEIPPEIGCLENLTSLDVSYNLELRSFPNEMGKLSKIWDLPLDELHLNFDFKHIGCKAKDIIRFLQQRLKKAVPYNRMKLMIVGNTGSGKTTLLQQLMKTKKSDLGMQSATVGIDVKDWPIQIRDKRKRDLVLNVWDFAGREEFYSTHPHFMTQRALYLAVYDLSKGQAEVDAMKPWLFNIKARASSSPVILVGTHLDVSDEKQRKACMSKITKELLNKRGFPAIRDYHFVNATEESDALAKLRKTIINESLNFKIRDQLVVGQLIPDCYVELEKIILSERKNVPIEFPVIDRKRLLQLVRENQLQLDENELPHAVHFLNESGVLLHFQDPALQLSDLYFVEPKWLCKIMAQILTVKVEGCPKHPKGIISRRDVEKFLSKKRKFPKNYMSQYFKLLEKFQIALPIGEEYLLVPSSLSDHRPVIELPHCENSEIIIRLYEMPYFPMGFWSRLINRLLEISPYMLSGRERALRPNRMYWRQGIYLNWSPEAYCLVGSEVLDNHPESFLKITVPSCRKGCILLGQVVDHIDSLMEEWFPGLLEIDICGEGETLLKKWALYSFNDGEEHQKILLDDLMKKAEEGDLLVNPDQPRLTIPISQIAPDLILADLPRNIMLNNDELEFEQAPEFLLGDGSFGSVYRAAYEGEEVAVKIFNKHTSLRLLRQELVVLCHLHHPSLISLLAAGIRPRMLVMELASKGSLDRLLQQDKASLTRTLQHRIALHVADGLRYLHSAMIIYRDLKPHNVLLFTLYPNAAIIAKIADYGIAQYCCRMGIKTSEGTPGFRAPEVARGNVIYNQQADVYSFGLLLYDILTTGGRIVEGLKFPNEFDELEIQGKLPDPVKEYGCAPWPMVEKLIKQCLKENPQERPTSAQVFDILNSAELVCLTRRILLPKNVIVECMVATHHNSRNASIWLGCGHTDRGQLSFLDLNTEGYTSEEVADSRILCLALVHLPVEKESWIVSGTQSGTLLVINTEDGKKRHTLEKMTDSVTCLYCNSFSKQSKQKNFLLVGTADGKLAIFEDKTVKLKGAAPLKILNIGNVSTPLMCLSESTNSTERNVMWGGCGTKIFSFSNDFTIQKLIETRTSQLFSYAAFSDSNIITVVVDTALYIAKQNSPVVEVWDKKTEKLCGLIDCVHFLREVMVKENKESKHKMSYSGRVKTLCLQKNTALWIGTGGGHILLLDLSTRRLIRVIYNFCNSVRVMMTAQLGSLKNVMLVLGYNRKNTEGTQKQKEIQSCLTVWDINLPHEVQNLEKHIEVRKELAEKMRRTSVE
# method_description: LRRK2 enzyme inhibition, ADP-Glo kinase assay
# Type: biochemical
# Parameters: purchased Invitrogen PR8604B
# conditions: ATP 10 μM

# compound, IC50
rows = [
    ("CC[C@@H](C)Nc1nc(Nc2ccc(S(=O)(=O)N3CCC(N4CCOCC4)CC3)cc2OC)nc2[nH]cc(C(F)(F)F)c12 [Example 172]", "301 to 1000 nM"),
    ("COc1cc(S(C)(=O)=O)ccc1Nc1nc(NC2CCCC2)c2c(C#N)c[nH]c2n1 [Example 106]", "< 100 nM"),
    ("COc1cc(S(C)(=O)=O)ccc1Nc1nc(NC2CCCC2)c2c(C(F)(F)F)c[nH]c2n1 [Example 188]", "301 to 1000 nM"),
    ("O=C(c1ccc(Nc2nc(NC3CCCCC3)c3c(C(F)(F)F)c[nH]c3n2)c2c1OCCO2)N1CCOCC1 [Example 190]", "< 100 nM"),
]

---

# Test system: SHP-77
# method_description: Inhibition of proliferation of SHP-77 cancer cells (Cell Titer-Glo)
# Assay type: cell-based
# conditions: Homo sapiens, SHP77, 72 hours
Entries and their measured GI50 follow.

# compound, GI50
measured = [
    ("COc1cc(S(=O)(=O)N2CCOCC2)ccc1Nc1nc(NCC2CCCC2)c2c(C#N)c[nH]c2n1 [Example 80]", "51 to 100 nM"),
    ("CNc1nc(Nc2ccc(S(=O)(=O)N3CCC(N4CCOCC4)CC3)cc2OC)nc2[nH]cc(C(F)(F)F)c12 [Example 157, 2,2,2-trifluoroacetate]", "301 to 1000 nM"),
    ("CCCCNc1nc(Nc2ccc(S(=O)(=O)N3CCOCC3)cc2OC)nc2[nH]cc(C(F)(F)F)c12 [Example 207]", "301 to 1000 nM"),
    ("COCC(C)(C)Nc1nc(Nc2ccc(S(=O)(=O)N3CCC(N4CCOCC4)CC3)cc2OC)nc2[nH]cc(C#N)c12 [Example 93]", "< 50 nM"),
    ("COc1cc(S(=O)(=O)N2CCOCC2)ccc1Nc1nc(NC(C)C)c2c(C#N)c[nH]c2n1 [Example 66]", "< 50 nM"),
]

---

# test_system: human GST-CLK1 (Homo sapiens, UniProt P49759)
# Sequence (P49759 129-484 limits assumed): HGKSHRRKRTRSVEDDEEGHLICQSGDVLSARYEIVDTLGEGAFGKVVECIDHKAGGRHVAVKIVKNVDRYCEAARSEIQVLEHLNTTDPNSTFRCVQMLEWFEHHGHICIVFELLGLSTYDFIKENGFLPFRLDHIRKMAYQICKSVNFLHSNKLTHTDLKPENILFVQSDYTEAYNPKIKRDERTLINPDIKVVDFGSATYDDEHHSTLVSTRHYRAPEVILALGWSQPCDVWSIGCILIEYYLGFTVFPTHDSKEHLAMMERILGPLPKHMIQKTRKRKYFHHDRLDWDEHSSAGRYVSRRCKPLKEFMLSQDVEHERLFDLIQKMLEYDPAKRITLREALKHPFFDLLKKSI

# compound, IC50
data = [
    ("COc1cc(S(=O)(=O)N2CCOCC2)ccc1Nc1nc(NCC2CCC2)c2c(C#N)c[nH]c2n1", "301 to 1000 nM"),
    ("N#Cc1c[nH]c2nc(Nc3ccc(C(=O)N4CCOCC4)c4c3OCCO4)nc(NCC3CCCC3)c12", "301 to 1000 nM"),
    ("COc1cc(S(=O)(=O)N2CCOCC2)ccc1Nc1nc(NC2CCCCC2)c2cc[nH]c2n1 [Example 26, 2,2,2-trifluoroacetate]", "301 to 1000 nM"),
    ("N#Cc1c[nH]c2nc(Nc3ccc(C(=O)N4CCOCC4)c4c3OCCO4)nc(N[C@H]3CCOC3)c12", "101 to 300 nM"),
    ("CC[C@@H](C)Nc1nc(Nc2ccc(P3(=O)CCN(C4COC4)CC3)cc2OC)nc2[nH]cc(C#N)c12", "< 100 nM"),
    ("N#Cc1c[nH]c2nc(Nc3ccc(C(=O)N4CC(CO)(CO)C4)c4c3OCCO4)nc(N[C@@H]3CCOC3)c12", "< 100 nM"),
    ("COCCNc1nc(Nc2ccc(C(=O)N3CCOCC3)c3c2OCCO3)nc2[nH]cc(C#N)c12", "< 100 nM"),
]
